All figures here come from paper PMC9454456.

Assay Remarks: in vivo
Set-up: species or system mice
Run Conditions: mouse, iv, 3.4 MBq, total radioactivity, Biodistribution, Liver
Attribute Measured: tissue uptake at 0.5 h (%ID/g)
API: value field is a number in %ID/g; no unit string.

IN: Field request: tissue uptake at 0.5 h | item: CC(=O)NC(CCCCNC(=O)CN1CCN(CC(=O)O)CCN(CC(=O)O)CCN(CC(=O)O)CC1)C(=O)N1CCCC1C(=O)N(C)C(CCCNC(=N)N)C(=O)NC(CCCNC(=N)N)C(=O)N1CCCC1C(=O)NC(Cc1ccc(O)cc1)C(=O)NC(C(=O)NC(CC(C)C)C(=O)O)C(C)(C)C (stereo not shown) [^68Ga-DOTA-NT-20.3, metal not drawn]
OUT: 2.02

----------
Assay Remarks: in vivo
Set-up: species or system mice
Run Conditions: mouse, iv, 3.4 MBq, total radioactivity, Biodistribution, Stomach
Attribute Measured: tissue uptake at 1 h (%ID/g)
API: value field is a number in %ID/g; no unit string.

IN: Field request: tissue uptake at 1 h | item: CC(=O)NC(CCCCNC(=O)CN1CCN(CC(=O)O)CCN(CC(=O)O)CCN(CC(=O)O)CC1)C(=O)N1CCCC1C(=O)N(C)C(CCCNC(=N)N)C(=O)NC(CCCNC(=N)N)C(=O)N1CCCC1C(=O)NC(Cc1ccc(O)cc1)C(=O)NC(C(=O)NC(CC(C)C)C(=O)O)C(C)(C)C (stereo not shown) [^68Ga-DOTA-NT-20.3, metal not drawn]
OUT: 0.91

----------
Assay Remarks: in vivo
Parameters: species or system mice
Run Conditions: mouse, iv, 3.4 MBq, total radioactivity, Biodistribution, Kidney
Attribute Measured: tissue uptake at 0.25 h (%ID/g)
API: value field is a number in %ID/g; no unit string.

IN: Field request: tissue uptake at 0.25 h | item: CC(=O)NC(CCCCNC(=O)CN1CCN(CC(=O)O)CCN(CC(=O)O)CCN(CC(=O)O)CC1)C(=O)N1CCCC1C(=O)N(C)C(CCCNC(=N)N)C(=O)NC(CCCNC(=N)N)C(=O)N1CCCC1C(=O)NC(Cc1ccc(O)cc1)C(=O)NC(C(=O)NC(CC(C)C)C(=O)O)C(C)(C)C (stereo not shown) [^68Ga-DOTA-NT-20.3, metal not drawn]
OUT: 21.2

----------
Assay Remarks: in vivo
Design: species or system mice
Run Conditions: mouse, iv, 3.4 MBq, total radioactivity, Biodistribution, Lung
Procedure: Blood and major organs were harvested immediately, weighed, and counted using a γ-counter. The radioactivity of each sample was calculated as the percentage of injected dose per gram of tissue (%ID/g) and corrected for radioactive decay.
Attribute Measured: tissue uptake at 5 min (%ID/g)
API: value field is a number in %ID/g; no unit string.

IN: Field request: tissue uptake at 5 min | item: CC(=O)NC(CCCCNC(=O)CN1CCN(CC(=O)O)CCN(CC(=O)O)CCN(CC(=O)O)CC1)C(=O)N1CCCC1C(=O)N(C)C(CCCNC(=N)N)C(=O)NC(CCCNC(=N)N)C(=O)N1CCCC1C(=O)NC(Cc1ccc(O)cc1)C(=O)NC(C(=O)NC(CC(C)C)C(=O)O)C(C)(C)C (stereo not shown) [^68Ga-DOTA-NT-20.3, metal not drawn]
OUT: 5.18

----------
Assay Remarks: in vivo
Design: species or system mice
Run Conditions: mouse, iv, 3.4 MBq, total radioactivity, Biodistribution, Spleen
Attribute Measured: tissue uptake at 0.5 h (%ID/g)
API: value field is a number in %ID/g; no unit string.

IN: Field request: tissue uptake at 0.5 h | item: CC(=O)NC(CCCCNC(=O)CN1CCN(CC(=O)O)CCN(CC(=O)O)CCN(CC(=O)O)CC1)C(=O)N1CCCC1C(=O)N(C)C(CCCNC(=N)N)C(=O)NC(CCCNC(=N)N)C(=O)N1CCCC1C(=O)NC(Cc1ccc(O)cc1)C(=O)NC(C(=O)NC(CC(C)C)C(=O)O)C(C)(C)C (stereo not shown) [^68Ga-DOTA-NT-20.3, metal not drawn]
OUT: 1.85
